tested on: GCLC; experiment: Human oxidative stress RT2 Profiler PCR array in HGEPp cells: GCLC; type: cell-based; conditions: 100 μg/ml, 24 h, RT-PCR ΔΔCt
readout: GCLC up regulation relative fold change (fold)
Give bare numbers, in fold.

1. Cc1c(-c2cnccn2)ssc1=S [ST-617-API, reference compound]	4.14
2. Cc1c(-c2cncc[n+]2OC2=CC(=O)OC2=O)ssc1=S	4.52

Next up:
Query Cc1c(-c2cnccn2)ssc1=S.Cl [Example 1, hydrochloride complex of oltipraz] yields GCLC up regulation relative fold change of 3.35

* * *

Consider the following compounds; for each one, report its NQO1 up regulation relative fold change.
tested on: NQO1; test: Human oxidative stress RT2 Profiler PCR array in HGEPp cells: NQO1; format: cell-based; conditions: 100 μg/ml, 24 h, RT-PCR ΔΔCt
Numbers only, in fold.

1) Cc1c(-c2cnccn2)ssc1=S.Cl [Example 1, hydrochloride complex of oltipraz]	3.14
2) Cc1c(-c2cnccn2)ssc1=S [ST-617-API, reference compound]	2.95

Next up:
Query Cc1c(-c2cncc[n+]2OC2=CC(=O)OC2=O)ssc1=S yields NQO1 up regulation relative fold change of 4.07

* * *

tested on: GSTP1; assay: Human oxidative stress RT2 Profiler PCR array in HGEPp cells: GSTP1; format: cell-based; conditions: 100 μg/ml, 24 h, RT-PCR ΔΔCt
readout: GSTP1 up regulation relative fold change

1) Cc1c(-c2cnccn2)ssc1=S.Cl [Example 1, hydrochloride complex of oltipraz]	2.77 fold
2) Cc1c(-c2cncc[n+]2OC2=CC(=O)OC2=O)ssc1=S [Example 2]	3.07 fold

Next up:
Result for Cc1c(-c2cnccn2)ssc1=S [ST-617-API, reference compound] , tested on GSTP1, GSTP1 up regulation relative fold change: 2.17 fold
